Target: full-length beta-Catenin (Uniprot ID P35222) (Homo sapiens (Human)) (UniProt P35222)
Sequence (P35222 2-781 limits assumed): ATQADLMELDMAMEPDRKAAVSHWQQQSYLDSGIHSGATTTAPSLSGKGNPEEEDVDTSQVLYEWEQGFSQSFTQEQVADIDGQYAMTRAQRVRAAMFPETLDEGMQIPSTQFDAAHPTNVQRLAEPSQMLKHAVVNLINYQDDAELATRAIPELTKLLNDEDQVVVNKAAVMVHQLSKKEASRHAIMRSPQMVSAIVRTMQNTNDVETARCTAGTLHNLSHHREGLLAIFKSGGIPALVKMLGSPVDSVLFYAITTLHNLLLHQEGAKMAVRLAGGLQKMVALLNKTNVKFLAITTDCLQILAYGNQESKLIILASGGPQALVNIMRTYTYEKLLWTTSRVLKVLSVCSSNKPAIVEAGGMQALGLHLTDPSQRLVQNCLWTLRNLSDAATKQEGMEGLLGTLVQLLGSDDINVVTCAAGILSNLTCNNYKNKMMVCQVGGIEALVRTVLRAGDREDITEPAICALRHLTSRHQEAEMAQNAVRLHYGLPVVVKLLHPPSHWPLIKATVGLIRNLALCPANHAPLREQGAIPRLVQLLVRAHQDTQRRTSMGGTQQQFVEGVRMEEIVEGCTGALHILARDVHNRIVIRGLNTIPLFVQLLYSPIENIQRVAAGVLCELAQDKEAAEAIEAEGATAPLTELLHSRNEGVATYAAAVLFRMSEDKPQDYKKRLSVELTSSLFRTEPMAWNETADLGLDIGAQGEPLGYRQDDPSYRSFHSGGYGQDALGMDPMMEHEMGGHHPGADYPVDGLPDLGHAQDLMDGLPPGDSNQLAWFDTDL
Test: fluorescence polarization competition, competitor 5FAM-TCF4 10-53
Starred links: 1 amine or outer side, 2 acyl side, 3 side chain; linkers in the order of their positions; H or OH if unused. Positions of bridges follow the written chain, without caps; N, C: chain ends. Non-standard residues stand in square brackets, D forms with d. Primed or numbered codes have the meaning given here. PyrS2″ = (S)-3-amino-1-((pent-4-en-1-yloxy)carbonyl)pyrrolidine-3-carboxylic acid (stapling residue), C=CCCCOC(=O)N1CC[C@@](N[*:1])(C(=O)[*:2])C1; B5(4) = 2,2-bis(4-pentenyl)glycine = 2-amino-2-(pent-4-en-1-yl)hept-6-enoic acid (stitching residue), C=CCCCC(CCCC=C)(N[*:1])C(=O)[*:2]; B5(5) = 2,2-bis(4-pentenyl)glycine, 2-amino-2-(pent-4-en-1-yl)hept-6-enoic acid (stitching residue), C=CCCCC(CCCC=C)(N[*:1])C(=O)[*:2]; B5(33) = 2-amino-2-(pent-4-en-1-yl)hept-6-enoic acid (bis-pentenylglycine, two olefin side chains), C=CCCCC(CCCC=C)(N[*:1])C(=O)[*:2]; PyrS2 = (S)-3-amino-1-((pent-4-en-1-yloxy)carbonyl)pyrrolidine-3-carboxylic acid, C=CCCCOC(=O)N1CC[C@@](N[*:1])(C(=O)[*:2])C1; Phe(2-Cl) = N[C@@H](Cc1ccccc1Cl)C(=O)O; 2Nal = N[C@@H](Cc1ccc2ccccc2c1)C(=O)O; Bta = N[C@@H](Cc1csc2ccccc12)C(=O)O; αAllylPro = C=CC[C@@]1(C(=O)O)CCCN1; tBuAla = CC(C)(C)C[C@H](N)C(=O)O; Thr(ol) = C[C@@H](O)[C@H](N)CO
# Lookup of reported pIC50 keyed by entry
Note: pIC50 values are expressed as the negative base-10 logarithm of concentration in M.

Check out these entries, answers already filled in.
Ac-[αAllylPro]D[tBuAla][B5(4)]DDAAFL[PyrS2″][Phe(2-Cl)][Bta][Thr(ol)] (staple 1-4, 4-11) [I-1249]: 7.77
Ac-[αAllylPro]D[tBuAla][B5(33)]DTAAFT[PyrS2]F[Bta]S-NH2 (staple 1-4, 4-11) [I-1263]: 7.37

Then this binder:
-- ask Quick check: pIC50 of Ac-[αAllylPro]D[tBuAla][B5(5)]DTAA[2Nal]T[PyrS2″]F[Bta]S-NH2 (staple 1-4, 4-11) [I-1267] ?
-- reply 6.74
